- System: Lolium perenne (LOLPE)
- protocol.notes: Example A glasshouse herbicide test, pre-emergence, LOLPE
- Type: in vivo
- condition.context: Lolium perenne, pre-emergence, 312 h, Rate 250 g/ha, sprayed after cultivation for one day, evaluated after 13 days, read-out: Pre-Emergence Activity LOLPE (100=total damage to plant; 0=no damage to plant)
The threshold is 80%. Values of pest or weed control at 250 g/ha beneath it are tagged y; values meeting or exceeding it are tagged n.

>  <compound>
Cc1cc(C)c(C2C(=O)C/C(=C\C3CCCC4CCCCC34)C2=O)c(C)c1 (centres unmarked)

>  <assigned.class>
n

$$$$
>  <compound>
Cc1cc(C)c(C2C(=O)CC(CC3CCCC4CCCCC43)C2=O)c(C)c1 (centres unmarked)

>  <assigned.class>
y

$$$$
>  <compound>
Cc1cc(C)c(C2=C(OC(=O)C(C)(C)C)CC(Cc3cc(F)cc(F)c3)C2=O)c(C)c1 (centres unmarked)

>  <assigned.class>
y

$$$$
>  <compound>
Cc1cc(C)c(C2C(=O)CC(Cc3ccc(S(C)(=O)=O)cc3)C2=O)c(C)c1 (centres unmarked)

>  <assigned.class>
n

$$$$
